All values here come from patent US20130337051A1.

- Assay text: physchem
- Assay type: physicochemical
- Run conditions: pH 7, aqueous buffer
Readout type: solubility (µg/mL)
Answers are plain numbers, in µg/mL.

The measured solubility associated with `O=C(O)c1cccnc1C(=O)O` reads 350

----------
- Assay text: physchem
- Format: physicochemical
- Run conditions: pH 5, aqueous buffer
Readout type: solubility (µg/mL)
Numbers only, in µg/mL.

solubility reported for this molecule `O=C(O)c1cccnc1C(=O)O` : 3

----------
- Assay text: physchem
- Assay type: physicochemical
- Run conditions: pH 8, aqueous buffer
Readout type: solubility (µg/mL)
Numbers only, in µg/mL.

Lab note: measured solubility of O=C(O)c1cccnc1C(=O)O [quinolinic acid] was 900
